Each entry below carries its reported IC50 at 72 h.
test: Cytotoxicity Assay (HCT116, CellTiter-Glo); assay type: cell-based; conditions: human, HCT116 cell cytotoxicity IC50

Use the examples below as a reference point.
O=C(NCc1cccnc1)Nc1ccc(-c2cn(S(=O)(=O)c3cccnc3)c3ccccc23)cc1: < 100 nM
O=C(NCc1ccc(Cl)nc1)Nc1ccc(-n2nc(N3CCN(C4CCCC4)CC3)c3ccccc32)cc1: ≥ 100 nM
O=C(NCc1cccnc1)Nc1ccc(-n2cc(C(=O)N3CCC(O)CC3)c3ccccc32)c(Cl)c1: ≥ 100 nM
O=C(NCc1cccnc1)Nc1ccc(N2CC3(CCN(C4CCOCC4)CC3)c3ccccc32)nc1: < 100 nM
O=C(NCc1cccnc1)Nc1ccc(-n2nc(C(=O)NCCN3CCCC3)c3ccccc32)cc1: ~18 nM

Can you share its IC50 at 72 h? I mean this compound: CC(C)(C)OC(=O)N1CC(N2CC(CCCCCCNC(=O)NCc3cccnc3)c3ccccc32)C1 (stereo not drawn)
< 100 nM

Can you share its IC50 at 72 h? I mean this compound: "O=C(NCc1cccnc1)Nc1ccc(-n2cc(C3CCN(CC(F)(F)F)CC3)c3ccccc32)cc1"
< 100 nM

Can you share its IC50 at 72 h? I mean this compound: "O=C(NCc1cccnc1)Nc1ccc(-n2nc(C(=O)N3CCC(N4CCCC4)CC3)cc2C2CC2)cc1"
≥ 100 nM

Can you share its IC50 at 72 h? I mean this compound: "O=C(/C=C/c1ccc(-n2nc(C(=O)N3CC(N4CCOCC4)C3)c3ccccc32)cc1)NCc1cccnc1"
~10 nM

Can you share its IC50 at 72 h? I mean this compound: "O=C(NCc1cccnc1)Nc1ccc(-n2cc(CCN3CCCC3)c3ccccc32)cc1"
~1 nM

Can you share its IC50 at 72 h? I mean this compound: "O=C(NCCCCCCc1c[nH]c2ccccc12)NCc1cccnc1"
≥ 100 nM

Can you share its IC50 at 72 h? I mean this compound: "O=C(NCc1cccnc1)Nc1ccc(-n2c(Cl)c(C(=O)N3CCC(n4ccnc4)CC3)c3ccccc32)cc1"
< 100 nM
